B1: Regulator of G-protein signaling 4 (Homo sapiens), P49798 (parent)
chain: MCKGLAGLPASCLRSAKDMKHRLGFLLQKSDSCEHNSSHNKKDKVVICQRVSQEEVKKWAESLENLISHECGLAAFKAFLKSEYSEENIDFWISCEEYKKIKSPSKLSPKAKKIYNEFISVQATKEVNLDSCTREETSRNMLEPTITCFDEAQKKIFNLMEKDSYRRFLKSRFYLDLVNPSSCGAEKQKGAKSSADCASLVPQCA

- Variants of: B1
- DETAILS: with gnao_rat Gnao1, P59215
- Sequence (P59215 whole entry): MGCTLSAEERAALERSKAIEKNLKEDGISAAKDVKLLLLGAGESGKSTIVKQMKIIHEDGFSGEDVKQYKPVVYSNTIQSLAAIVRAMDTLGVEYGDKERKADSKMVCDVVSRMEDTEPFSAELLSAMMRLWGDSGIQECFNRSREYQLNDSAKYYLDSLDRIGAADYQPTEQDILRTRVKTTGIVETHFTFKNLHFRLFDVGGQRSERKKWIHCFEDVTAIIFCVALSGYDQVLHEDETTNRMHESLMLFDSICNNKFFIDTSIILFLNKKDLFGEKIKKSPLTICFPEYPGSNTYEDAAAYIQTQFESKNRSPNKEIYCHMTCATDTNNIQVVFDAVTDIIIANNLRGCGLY
ENDPOINT LABEL: effect of a mutation on the interaction

In [3]: df
Out[3]:
                 mut    observed_measurement
0              R134A  decreasing interaction
1  E126A;R134A;R166A  disrupting interaction
2        R134A;R166A  decreasing interaction
3              N128S  disrupting interaction
